Tested On: GPR39 (Homo sapiens, UniProt O43194)
Sequence (O43194 whole entry): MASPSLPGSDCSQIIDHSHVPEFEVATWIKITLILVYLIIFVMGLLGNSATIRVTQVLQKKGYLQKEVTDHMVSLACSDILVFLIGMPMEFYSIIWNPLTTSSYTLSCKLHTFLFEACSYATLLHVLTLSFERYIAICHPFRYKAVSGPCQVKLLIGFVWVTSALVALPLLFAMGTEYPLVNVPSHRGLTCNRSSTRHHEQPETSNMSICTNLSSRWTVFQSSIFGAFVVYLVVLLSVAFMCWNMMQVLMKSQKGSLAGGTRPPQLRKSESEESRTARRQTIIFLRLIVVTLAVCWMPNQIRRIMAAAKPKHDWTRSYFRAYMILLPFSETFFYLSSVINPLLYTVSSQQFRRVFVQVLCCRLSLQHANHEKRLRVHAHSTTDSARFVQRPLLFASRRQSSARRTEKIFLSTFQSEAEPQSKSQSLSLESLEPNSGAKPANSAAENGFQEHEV
Assay Summary: calcium influx assay system (aequorin) in CV-1 cells
Assay type: cell-based
Design: host or cells: CV-1 fibroblast cell line, lipofectamine transfection
Condition Details: CV-1 cells transfected with human GPR39, Gαq, 6 hours, read-out: Ca2+ influx assay EC50
Endpoint Name: EC50 (nM)
// return numeric value only (unit: nM, not printed)

q: Tell me the measured EC50 of CCCCCCCC(=O)NCCCC[C@H](NC(=O)[C@@H](N)Cc1cn(C(c2ccccc2)c2ccccc2)cn1)C(=O)N[C@H](Cc1ccc(C)cc1)C(=O)N[C@@H](Cc1ccc(O)cc1)C(=O)O , please.
a: 2.7
